Hello, the source for this data is PubChem BioAssay AID179, in case you need it.

- System: CEM cells HIV-1 protection, formazan growth assay
- Assay Details: NCI AIDS Antiviral Assay;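 active means compounds giving half or more protection of infected cells from virus-caused growth loss, again on retest; inactive means the rest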
- Method: The ability of compounds to protect human CEM cells from HIV-1 infection is measured as a screen for new compounds capable of inhibiting the HIV virus. Five concentrations of drug were tested on uninfected and infected cells and cell growth was measured using a soluble formazan assay. […] Compounds that provided at least 50% protection were retested. Compounds that provided at least 50% protection on retest were listed as moderately active. […]
Where a SMILES comes first, the peptide text is derived from it. [ ]: non-standard residue; d: D form. The star is where a group is joined. Phe(4-NO2) = N[CH](Cc1ccc([N+](=O)[O-])cc1)C(=O)O; Cbz = O=C(OCc1ccccc1)*
Field 'call' accepts active, inactive

Query :: Please share the test call associated with `O=Nc1c(-c2ccccc2)[nH]oc1=O` .
Result :: inactive

Query :: Please share the test call associated with CCOC(=O)CCC(NC(=O)OCc1ccccc1)C(=O)NC(CCC(=O)OCC)C(=O)NC(CCC(=O)OCC)C(=O)NC(CCC(=O)OCC)C(=O)NC(CCC(=O)OCC)C(=O)NC(Cc1ccc([N+](=O)[O-])cc1)C(=O)NC(CCC(=O)OCC)C(=O)NC(CCC(=O)OCC)C(=O)NC(CCC(=O)OCC)C(=O)NC(CCC(=O)OCC)C(=O)NC(CCC(=O)OCC)C(=O)OCC (stereo not drawn) (Cbz-E(OEt)E(OEt)E(OEt)E(OEt)E(OEt)[Phe(4-NO2)]E(OEt)E(OEt)E(OEt)E(OEt)E(OEt)-OEt; configuration not given here) .
Result :: inactive

Query :: Please share the test call associated with `O=C1NC(=S)N/C1=C\c1ccco1` .
Result :: inactive

Query :: Please share the test call associated with `COc1ccc(-c2cn3c(nc4ccccc43)c(C)n2)cc1` .
Result :: inactive

Query :: Please share the test call associated with `COc1cc(/C=C2/N=C(c3ccccc3)N(C3=NNC4(C(=O)N3)c3ccccc3-c3ccccc34)NC2=O)ccc1O` .
Result :: inactive

Query :: Please share the test call associated with C[N+](C)(C)CC1CCCC/C1=N\O (stereo not drawn) .
Result :: inactive

Query :: Please share the test call associated with `COC(=O)c1c2c(n(CCO)c1OC)C(=O)c1ccccc1C2=O` .
Result :: inactive

Query :: Please share the test call associated with `CCOC(=O)N/N=C(/N)Cc1ccc(Cl)cc1` .
Result :: inactive

Query :: Please share the test call associated with `NS(=O)(=O)c1nnc(/N=C(/CCC(=O)O)C(=O)O)s1` .
Result :: inactive

Query :: Please share the test call associated with `COc1cc(/C=N/NC2=NCCCCN2)ccc1O` .
Result :: inactive

Query :: Please share the test call associated with `N#C/C(=C\c1ccc(F)cc1)C(=O)O` .
Result :: inactive

Query :: Please share the test call associated with NC(=O)C1CC2(C1)CC(C(N)=O)C2 (stereo not drawn) .
Result :: inactive

Query :: Please share the test call associated with `CCO/C=N/c1[nH]c(C)c(Cc2ccccc2)c1C#N` .
Result :: inactive

Query :: Please share the test call associated with `CC1(C)O[C@@H]2[C@@H](COC(C)(C)O[C@H]2C2SCCCS2)O1` .
Result :: inactive

Query :: Please share the test call associated with `CC1=C(Br)C(c2ccccc2)=Nc2ccccc2N1` .
Result :: inactive

Query :: Please share the test call associated with O=C(O)C(CO)NC(=O)C1CCCN1C(=O)OCc1ccccc1 (stereo not drawn) (Cbz-Pro-Ser-OH; configuration not given here) .
Result :: inactive

Query :: Please share the test call associated with `O=c1[nH]cc(S)c(=O)[nH]1` .
Result :: inactive

Query :: Please share the test call associated with COC(=O)C(CCSC)NC(=O)Cc1ccc(C(=O)c2ccccc2)cc1 (stereo not drawn) .
Result :: inactive

Query :: Please share the test call associated with `CCOC(=O)c1cc(-c2ccc([N+](=O)[O-])cc2)c([N+](=O)[O-])[nH]1` .
Result :: inactive

Query :: Please share the test call associated with COC(=O)C1(C2CCOC2=O)NCCc2c1[nH]c1ccccc21 (stereo not drawn) .
Result :: inactive

Query :: Please share the test call associated with `N#C/C=C/c1cccc(Br)c1` .
Result :: inactive

Query :: Please share the test call associated with CN1CCCC2(CCCc3ccccc32)C1 (stereo not drawn) .
Result :: inactive

Query :: Please share the test call associated with O=C(O)CC1CC=CCC1CC(=O)O (stereo not drawn) .
Result :: inactive

Query :: Please share the test call associated with `CCCCCCCCCCCCSSSCCCCCCCCCCCC` .
Result :: inactive

Query :: Please share the test call associated with O=C(O)c1ccc(CS(=O)c2ccccc2C(=O)O)c([N+](=O)[O-])c1 (stereo not drawn) .
Result :: inactive

Query :: Please share the test call associated with COc1ccc(-c2nc(SC)n(C3OC(COC(C)=O)C(OC(C)=O)C(OC(C)=O)C3OC(C)=O)c(=O)c2C#N)cc1 (stereo not drawn) .
Result :: inactive

Query :: Please share the test call associated with CC(CC[C@@]1(C)C(=O)CCC2O[C@]21C)[C@H]1C[C@@H](c2ccoc2)OC1=O (stereo partly drawn) .
Result :: inactive

Query :: Please share the test call associated with Cc1cc2c(c(=O)o1)C1=S(SC(c3ccccc3)=C1)S2 (stereo not drawn) .
Result :: active
